Measured Ratio of the control reporter (RES): test reporter (MUG), listed per entry.
- measuredTarget: B. subtilis RNAP (Bacillus subtilis, UniProt P37870+P37871)
- Construct: endogenous in cells; host or cells: Bacillus subtilis strain PL37 (built from strain 168)
- Sequence (P37871 whole entry): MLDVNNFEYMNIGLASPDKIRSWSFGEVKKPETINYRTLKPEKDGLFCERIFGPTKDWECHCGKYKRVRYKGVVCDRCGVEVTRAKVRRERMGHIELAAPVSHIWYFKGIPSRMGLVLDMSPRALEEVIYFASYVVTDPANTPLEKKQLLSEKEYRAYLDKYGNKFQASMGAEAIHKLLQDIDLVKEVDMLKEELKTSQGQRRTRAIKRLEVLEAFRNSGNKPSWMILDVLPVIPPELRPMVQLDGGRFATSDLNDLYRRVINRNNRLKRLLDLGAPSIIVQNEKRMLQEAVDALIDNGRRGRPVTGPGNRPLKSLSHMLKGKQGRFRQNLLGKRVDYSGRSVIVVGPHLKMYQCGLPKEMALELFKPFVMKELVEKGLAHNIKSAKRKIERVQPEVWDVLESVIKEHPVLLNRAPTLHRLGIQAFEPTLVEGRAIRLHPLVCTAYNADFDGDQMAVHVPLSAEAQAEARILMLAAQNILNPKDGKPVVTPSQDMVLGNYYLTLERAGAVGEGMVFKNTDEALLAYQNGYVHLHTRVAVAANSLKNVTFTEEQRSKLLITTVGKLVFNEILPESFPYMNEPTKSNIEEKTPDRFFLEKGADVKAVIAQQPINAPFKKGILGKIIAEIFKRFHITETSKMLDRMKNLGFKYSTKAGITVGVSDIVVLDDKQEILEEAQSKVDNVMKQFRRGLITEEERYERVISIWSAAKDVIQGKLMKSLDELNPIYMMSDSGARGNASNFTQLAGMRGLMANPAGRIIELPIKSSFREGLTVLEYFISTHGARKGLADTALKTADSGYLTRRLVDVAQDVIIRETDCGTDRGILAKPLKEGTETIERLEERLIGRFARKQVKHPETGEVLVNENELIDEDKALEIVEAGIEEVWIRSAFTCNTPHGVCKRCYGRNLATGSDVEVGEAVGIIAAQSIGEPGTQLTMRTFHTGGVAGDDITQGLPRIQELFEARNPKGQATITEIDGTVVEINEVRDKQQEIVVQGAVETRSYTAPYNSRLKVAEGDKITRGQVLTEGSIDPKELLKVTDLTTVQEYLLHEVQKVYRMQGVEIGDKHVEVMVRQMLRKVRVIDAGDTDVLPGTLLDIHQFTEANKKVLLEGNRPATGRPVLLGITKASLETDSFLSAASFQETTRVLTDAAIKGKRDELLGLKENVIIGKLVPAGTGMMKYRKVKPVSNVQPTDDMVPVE
- Sequence (P20429 whole entry, further chain): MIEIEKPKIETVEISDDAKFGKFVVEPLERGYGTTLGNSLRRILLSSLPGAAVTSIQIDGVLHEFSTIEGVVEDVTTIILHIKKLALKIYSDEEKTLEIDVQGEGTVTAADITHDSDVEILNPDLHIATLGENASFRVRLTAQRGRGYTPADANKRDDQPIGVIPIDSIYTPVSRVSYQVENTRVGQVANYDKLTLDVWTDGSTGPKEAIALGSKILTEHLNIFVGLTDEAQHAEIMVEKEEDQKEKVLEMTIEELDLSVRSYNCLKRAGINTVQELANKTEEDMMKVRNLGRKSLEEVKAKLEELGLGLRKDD
- Sequence (O35011 whole entry, further chain): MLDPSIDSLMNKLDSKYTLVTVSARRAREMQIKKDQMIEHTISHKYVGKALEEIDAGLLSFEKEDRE
- Sequence (P37870 whole entry): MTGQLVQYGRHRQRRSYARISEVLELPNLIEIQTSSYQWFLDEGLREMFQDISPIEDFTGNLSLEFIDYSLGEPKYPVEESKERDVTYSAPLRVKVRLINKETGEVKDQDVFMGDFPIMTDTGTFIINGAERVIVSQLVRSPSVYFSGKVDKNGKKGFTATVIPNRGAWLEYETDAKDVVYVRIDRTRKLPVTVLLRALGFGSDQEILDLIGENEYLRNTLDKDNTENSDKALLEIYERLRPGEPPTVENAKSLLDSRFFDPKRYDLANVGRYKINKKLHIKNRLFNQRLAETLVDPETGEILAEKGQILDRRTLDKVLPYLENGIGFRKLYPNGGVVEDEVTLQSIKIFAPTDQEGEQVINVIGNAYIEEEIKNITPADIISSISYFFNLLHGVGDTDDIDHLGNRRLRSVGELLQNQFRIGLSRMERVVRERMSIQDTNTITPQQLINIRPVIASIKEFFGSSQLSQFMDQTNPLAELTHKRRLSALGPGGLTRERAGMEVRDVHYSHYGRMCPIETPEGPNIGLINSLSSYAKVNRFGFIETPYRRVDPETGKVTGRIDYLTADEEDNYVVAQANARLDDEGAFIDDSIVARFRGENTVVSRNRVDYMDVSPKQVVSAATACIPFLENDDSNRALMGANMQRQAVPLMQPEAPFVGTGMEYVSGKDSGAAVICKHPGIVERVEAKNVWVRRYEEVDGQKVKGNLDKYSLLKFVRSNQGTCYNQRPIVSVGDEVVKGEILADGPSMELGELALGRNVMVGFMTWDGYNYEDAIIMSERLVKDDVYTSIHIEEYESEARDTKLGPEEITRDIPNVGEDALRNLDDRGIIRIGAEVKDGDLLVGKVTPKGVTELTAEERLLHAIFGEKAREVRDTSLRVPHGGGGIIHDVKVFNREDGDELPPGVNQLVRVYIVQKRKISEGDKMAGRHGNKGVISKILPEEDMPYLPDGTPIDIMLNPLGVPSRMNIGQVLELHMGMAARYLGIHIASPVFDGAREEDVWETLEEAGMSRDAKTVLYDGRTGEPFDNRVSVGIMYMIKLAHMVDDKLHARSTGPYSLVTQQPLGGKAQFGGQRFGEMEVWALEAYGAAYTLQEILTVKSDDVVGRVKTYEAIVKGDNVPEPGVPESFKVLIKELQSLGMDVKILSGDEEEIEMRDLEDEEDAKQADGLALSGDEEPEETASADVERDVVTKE
- testDescription: Dual reporter assay in strain PL37: test reporter Pxyl-lacZ and ratio of control to test reporter (RES:MUG)
- Type: cell-based
- measurementConditions: strain PL37; Dilution Number 7; DMSO control […]
The response must contain the number and no unit.

Recorded results for 2 compounds are shown here.
CO[C@@H]1[C@@H](OC(N)=O)[C@@H](O)[C@H](Oc2ccc3c(O)c(NC(=O)c4ccc(O)c(CC=C(C)C)c4)c(=O)oc3c2C)OC1(C)C = 0.85
CN[C@@H]1[C@H](O)[C@H](NC)[C@H]2O[C@@]3(O)C(=O)C[C@@H](C)O[C@H]3O[C@@H]2[C@H]1O = 1.08

Now for another entry.
Given the compound CC1(C)S[C@@H]2[C@H](NC(=O)Cc3ccccc3)C(=O)N2[C@H]1C(=O)O and test system B. subtilis RNAP (Bacillus subtilis, UniProt P37870+P37871), the measured Ratio of the control reporter (RES): test reporter (MUG) is 1.84
